tested system: Histone deacetylase 2 (Homo sapiens)
Sequence (Q92769 whole entry): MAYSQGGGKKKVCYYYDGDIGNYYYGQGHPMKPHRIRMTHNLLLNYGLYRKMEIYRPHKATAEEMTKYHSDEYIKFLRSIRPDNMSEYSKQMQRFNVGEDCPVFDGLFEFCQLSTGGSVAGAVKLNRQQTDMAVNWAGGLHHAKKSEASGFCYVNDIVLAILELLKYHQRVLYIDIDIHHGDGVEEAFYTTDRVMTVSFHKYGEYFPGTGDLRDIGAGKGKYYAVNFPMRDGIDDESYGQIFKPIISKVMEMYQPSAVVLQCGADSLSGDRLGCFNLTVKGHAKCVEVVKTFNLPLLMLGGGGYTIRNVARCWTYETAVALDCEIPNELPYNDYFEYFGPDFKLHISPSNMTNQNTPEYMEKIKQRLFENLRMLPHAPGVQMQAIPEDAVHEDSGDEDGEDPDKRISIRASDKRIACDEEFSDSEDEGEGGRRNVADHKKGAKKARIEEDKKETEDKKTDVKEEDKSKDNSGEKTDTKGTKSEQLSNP
method description: Inhibition of full length recombinant human C-terminal His-tagged HDAC2 expressed in baculovirus infected sf9 cells using Boc-Lys-(Ac)-AMC as substrate preincubated for 15 mins followed by substrate addition measured after 60 mins by fluorescence assay
pIC50: −log10 of the molar value.
Threshold rule: pIC50 greater than or equal to 6 is Criterion met; below that, Criterion not met.

Prompt line: pIC50 >= 6 for `O=C(CCCNC(=O)c1cc(-c2ccc(F)cc2)[nH]n1)NO` ?
Response line: Criterion not met

Prompt line: Repeat with `Cc1cc(-c2ccc(F)cc2)n(Cc2ccc(C(=O)NO)cc2)n1`
Response line: Criterion not met

Prompt line: Now consider `Cc1ccc(-c2cc(C(F)(F)F)nn2CCc2ccc(C(=O)NO)cc2)cc1` .
Response line: Criterion met

Prompt line: Now this one: `O=C(CCCCCNC(=O)c1cc(-c2ccc(F)cc2)[nH]n1)NO`
Response line: Criterion met

Prompt line: Also need `CCCc1cc(-c2ccc(F)cc2)nn1Cc1ccc(C(=O)NO)cc1` , thanks.
Response line: Criterion met

Prompt line: Another: `O=C(CCNC(=O)c1cc(-c2ccc(F)cc2)[nH]n1)NO`
Response line: Criterion not met

Prompt line: Repeat with `Cc1cc(-c2ccc3c(c2)OCO3)nn1Cc1ccc(C(=O)NO)cc1`
Response line: Criterion met

Prompt line: Lookup `Cc1ccc(-c2cc(C(F)(F)F)n(CCc3ccc(C(=O)NO)cc3)n2)cc1`
Response line: Criterion met

Prompt line: Would you mind doing `Cc1ccc(-c2cc(C)n(Cc3ccc(C(=O)NO)cc3)n2)cc1` as well?
Response line: Criterion met
